B1: LINE1-mini (parent)
chain: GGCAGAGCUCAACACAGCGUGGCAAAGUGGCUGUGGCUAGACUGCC

variants of: B1; experiment: self-cleavage, relative activity (ratio to wild type); higher = more cleavage; in vitro, sequencing; the parent is a self-cleaving ribozyme
Value Kind: self-cleavage
// no unit, no text: just the number

Query: For the variant U20C G35C , what self-cleavage is on record?
Result: 0.03

Query: For the variant U20A G22A , what self-cleavage is on record?
Result: 0.55

Query: For the variant G7A C46G , what self-cleavage is on record?
Result: 0.36

Query: For the variant A6G C31G , what self-cleavage is on record?
Result: 0.05
